Ref: ChEMBL document CHEMBL4359923

measured target: UniProt:P62942
Sequence (P62942 whole entry): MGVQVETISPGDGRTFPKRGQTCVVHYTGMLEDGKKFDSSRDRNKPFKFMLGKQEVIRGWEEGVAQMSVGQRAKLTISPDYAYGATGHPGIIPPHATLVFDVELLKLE
assay text: Inhibition of FKBP12-mediated calcineurin activation in PMA/ionomycin stimulated human Jurkat cells transfected with NFAT-Luc assessed as reduction in NFAT reporter activity at 1 uM pretreated for 30 mins prior to PMA/ionomycin activation measured after 6 hrs by luciferase reporter assay
Assay type: cell-based
property: inhibition (INH)

[[record]]
smiles_record = "CNc1ccc(/C=C/C[C@@H]2/C=C(\\C)C[C@H](C)C[C@H](OC)[C@H]3O[C@@](O)(C(=O)C(=O)N4CCCC[C@H]4C(=O)O[C@H](/C(C)=C/[C@@H]4CC[C@@H](O)[C@H](OC)C4)[C@H](C)[C@@H](O)CC2=O)[C@H](C)C[C@@H]3OC)cc1"
property = "inhibition (INH)"
reported_measurement = "Active"

[[record]]
smiles_record = "CO[C@H]1C[C@@H](C)C/C(C)=C/[C@@H](C/C=C/c2ccc(N)cc2)C(=O)C[C@H](O)[C@@H](C)[C@@H](/C(C)=C/[C@@H]2CC[C@@H](O)[C@H](OC)C2)OC(=O)[C@@H]2CCCCN2C(=O)C(=O)[C@]2(O)O[C@H]1[C@@H](OC)C[C@H]2C"
property = "inhibition (INH)"
reported_measurement = "Active"

[[record]]
smiles_record = "CO[C@H]1C[C@@H](C)C/C(C)=C/[C@@H](C/C=C/c2ccnc3cc(F)ccc23)C(=O)C[C@H](O)[C@@H](C)[C@@H](/C(C)=C/[C@@H]2CC[C@@H](O)[C@H](OC)C2)OC(=O)[C@@H]2CCCCN2C(=O)C(=O)[C@]2(O)O[C@H]1[C@@H](OC)C[C@H]2C"
property = "inhibition (INH)"
reported_measurement = "Active"

